study-target: reduced p38α (MAPK14), recombinant mouse protein kept with reducing agent (DTT or TCEP) (mouse, UniProt P47811 1-360)
Sequence (P47811 whole entry): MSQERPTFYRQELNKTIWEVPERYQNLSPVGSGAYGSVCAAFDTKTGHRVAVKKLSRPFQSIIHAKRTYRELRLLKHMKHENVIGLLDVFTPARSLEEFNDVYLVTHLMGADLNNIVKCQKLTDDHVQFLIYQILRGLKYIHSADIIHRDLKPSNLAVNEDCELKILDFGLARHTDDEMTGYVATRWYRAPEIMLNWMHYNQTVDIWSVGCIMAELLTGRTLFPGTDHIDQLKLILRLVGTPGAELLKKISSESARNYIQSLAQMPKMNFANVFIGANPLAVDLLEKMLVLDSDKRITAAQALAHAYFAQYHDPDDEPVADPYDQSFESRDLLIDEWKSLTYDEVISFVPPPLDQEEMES
method-notes: ITC
Where no end group is shown, it is not given here.
readout-kind: pKd
Answers are plain numbers, as −log10 of the molar value.

// query Query: pKd; subject: RVYPVSVPYSSAQSTSKTSVTLSLVMPSQ (also: FITC label, end not given here) [FITC-TAB1 peptide (amino acids 384-412 of TAB1)]
// result 5.92
